Measured values drawn from patent US20250346668A1 for this set.

Each entry below carries its recorded Kd.
Target: T1, human CD3e/g antigen (ACRO, catalog number CDG-H52W5) (human, UniProt P07766 23-126; P09693 23-116)
T1 construct: Bought reagent used as the Biacore analyte; also called hCD3e/g
Assay: SPR (Biacore 8K), antibody captured via anti-human Fc
# output: bare number, implied unit nM

>>> quantitative_result("hAb007-23 (antibody, V domains shown, Humanized; constant regions not specified) VH: QVQLVQSGAEVKKPGASVKVSCKASGSTFTDNYIHWVRQAPGQRLEWIGWIYPGSVNIKYNEKFKDRVTITADTSASTAYMELSSLRSEDTAVYYCARDISRYYFDYWGQGTTVTVSS VL: DIVMTQSPDSLAVSLGERATMNCKSSQSLLNSRTRKNYLAWYQQKPGQPPKLLIYWASTRESGVPDRFSGSGSGTDFTLTISSLQAEDVAVYYCKQSFILRTFGGGTKLEIK")
6.59

Let us move to another entry and its Kd.
Form field Kd, entry hAb001-25 (antibody, V domains shown, Humanized; constant regions not specified) VH: QVQLVQSGAEVKKPGASVKVSCKASGYSFTNYYMHWVRQAPGQRLEWIGWTYPGNNNIKYNEKFKGRATITADTSASTAYMELSSLRSEDTAVYYCARDGYGYYFFDYWGQGTLVTVSS VL: DIVMTQSPDSLAVSLGERATINCKSSQSLLNNRTRKNYLAWYQQKPGQPPKLLIYWASTRESGVPDRFSGSGSGTDFTLTISSLQAEDVAVYYCKQSYTLRTFGGGTKLEIK : 22.6
